assay: M. tuberculosis growth inhibition, HTS (AID 449762);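 note: bacterial growth assessed after seven days of incubation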; conditions: M. tuberculosis H37Rv growth inhibition, 7H9 media; at 25 µM; stronger effect = higher value
About 1,900 (0.58%) of roughly 330,000 compounds were called active. Another 4% or so got no clear call; they are omitted. A selection follows. Results with a measured potency or affinity are listed apart.
metric.name: inhibition

Illustrative cases are given below, each with its answer.
In [3]: df
Out[3]:
                                   compound  metric_name                val
0  COc1ccc(OC)c(S(=O)(=O)N2CCCCC2C(=O)O)c1 (configuration not stated)   inhibition  -12.8% (inactive)
1       Cn1nc([N+](=O)[O-])nc1Sc1ccc(Cl)cc1   inhibition   0.18% (inactive)
2                    CCN1CCN(Cc2ccccc2C)CC1   inhibition  -5.92% (inactive)

Please give inhibition, item by item, for the list that follows.
1. CCn1c(N)c(C(=O)NCc2cccnc2)sc1=S
2. Cc1nn(C(C)C(=O)NCCCN(Cc2ccccc2)C(C)C)c(=O)c2c1sc1ccccc12 (configuration not stated)

OUTPUT:
-1.76% (inactive)
-3.36% (inactive)

Please give inhibition, item by item, for the list that follows.
1. CCNC(=S)NC1CC2CCCC(C1)N2Cc1ccc(C)cc1 (configuration not stated)
2. Cc1ccc(C(=O)Oc2ccc(Br)cc2C(=S)N2CCOCC2)cc1
3. CCOC(=O)c1sc2nc3n(c(=O)c2c1C)CCC3
4. CNC(=S)NC1CC2CCC(C1)N2Cc1ccccc1 (configuration not stated)
5. Cc1cc(=O)oc2cc(NC(=O)C(C)Oc3cccc(Cl)c3)ccc12 (configuration not stated)
6. CC1Cc2cc(-c3csc(NC(=O)Cc4ccccc4)n3)ccc2N1S(C)(=O)=O (configuration not stated)
7. Cc1ccc(Sc2nc([N+](=O)[O-])nn2C)cc1

OUTPUT:
1: -6.09% (inactive); 2: 11.3% (inactive); 3: -4.9% (inactive); 4: -6.1% (inactive); 5: 4% (inactive); 6: 54.4% (inactive); 7: 6.48% (inactive)

Please give inhibition, item by item, for the list that follows.
1. COc1cc(C)cc(CN2CC=C(c3ccccc3)CC2)c1O
2. c1ccc(CCNc2ncnc3sccc23)nc1
3. NC(=O)c1ccsc1N
4. Cc1ccc(-n2c(C)cc(/C=C3\SC(=O)NC3=O)c2C)cc1

OUTPUT:
["4.09% (inactive)", "-8.28% (inactive)", "6.02% (inactive)", "7.2% (inactive)"]

Please give inhibition, item by item, for the list that follows.
1. Cc1ccc(C(=O)Nc2cc(C(F)(F)F)ccc2-n2cncn2)o1
2. CCc1ccc(NC(=S)NC2CC3CCCC(C2)N3Cc2ccccc2)cc1 (configuration not stated)
3. CN(C(=O)CSc1cccc[n+]1[O-])c1ccccc1
4. COc1cc2[nH]c3ccccc3c2cc1C
5. O=C(Nc1cc(C(F)(F)F)ccc1-n1cncn1)c1ccc(Br)cc1
6. C/C(=N\NC(=O)c1ccc(Cn2cc(Br)cn2)o1)c1cccc(NC(=O)C(C)(C)C)c1
7. O=C(Nc1ccccc1Cl)N1CCN(c2ccc3nnc(-c4ccc(F)cc4)n3n2)CC1

OUTPUT:
-8.09% (inactive)
9.67% (inactive)
-7.05% (inactive)
-8.31% (inactive)
-2.45% (inactive)
-8.27% (inactive)
22.4% (inactive)

Please give inhibition, item by item, for the list that follows.
1. O=C(CSc1nnc(Nc2ccccc2F)s1)NC(=O)CN1CCCC1=O
2. COc1ccccc1OCCNC(=O)c1ccc(S(=O)(=O)N(C)C)cc1
3. COc1ccc(CCNC(=O)c2[nH]c(C)c(C(C)=O)c2C)cc1OC
4. O=C(N/N=C/c1c(O)n(Cc2ccccc2)c(=O)[nH]c1=O)c1ccccc1O
5. COc1cccc(OCC(=O)Nc2c3c(nn2-c2ccccc2)CS(=O)(=O)C3)c1
6. CCN(CC)C(=S)Nc1ccc(Cl)c(Cl)c1
7. NS(=O)(=O)c1ccc(NC(=O)CSc2nnc(Cc3cccs3)n2-c2ccccc2)cc1
8. CCCCC[C@@H](O)c1cc2ccccc2c(=O)o1

OUTPUT:
1: -10.7% (inactive); 2: -2.93% (inactive); 3: -6.23% (inactive); 4: 14.7% (inactive); 5: 4.27% (inactive); 6: 7.74% (inactive); 7: 10.1% (inactive); 8: -0.25% (inactive)

INPUT: Give the measured inhibition of CC(=O)Nc1cccc(NC(=S)Nc2cccc(Cl)c2Cl)c1 .
OUTPUT: 0.32% (inactive)

* * *

test: M. tuberculosis growth inhibition, HTS (AID 449762);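 note: bacterial growth assessed after seven days of incubation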; details: M. tuberculosis H37Rv growth inhibition, 7H9 media; at 25 µM; stronger effect = higher value
Screen size: about 330,000 compounds; about 1,900 (0.58%) were called active. Not shown: some 4% with an inconclusive outcome. Only a sample is shown. Entries with a potency or affinity are not part of this list.
metric.name: inhibition (%)
Numbers only, in %.

Illustrative cases are given below, each with its answer.
In [3]: df
Out[3]:
                                   compound   val
0  CCN1C(=O)N[C@@H](c2cccc(C(F)(F)F)c2)C(C(=O)OC)=C1C  -2.1
1             Cc1cc(NCCO)nc(-n2nc(C)cc2C)n1  1.56
2  Cc1ccc(/C=C/C(=O)N2CCCC(C(N)=O)C2)o1 (centres undefined)  7.73

Moving on to another compound below.
INPUT: Give the measured inhibition of C/C(CC(=O)Nc1cc(Cl)ccc1C)=N\NC(N)=O .
OUTPUT: 4.8

* * *

Could you please report measured inhibition for the items listed next?
assay: M. tuberculosis growth inhibition, HTS (AID 449762);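 note: bacterial growth assessed after seven days of incubation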; conditions: M. tuberculosis H37Rv growth inhibition, 7H9 media; at 25 µM; stronger effect = higher value
The whole screen tested about 330,000 compounds, of which about 1,900 (0.58%) were called active. Roughly 4% stayed inconclusive and do not appear here. Not all results are given here. Measured potencies and affinities stand elsewhere.
Answers are plain numbers, in %.

Illustrative cases are given below, each with its answer.
>>> print(df.to_string())
                                   compound  metric_name    val
0                    CN(C)CCOc1ccc2ccccc2c1   inhibition   2.98
1  CN1CCN2c3ncccc3Cc3ccccc3C2C1 (centres undefined)   inhibition  -1.61
2  Cc1cccc(NC(=O)CCN2C(=O)c3cccc([N+](=O)[O-])c3C2=O)c1   inhibition  -5.47
3        CCn1c2c(c3cc(OCC(C)C)ccc31)CCCC2=O   inhibition  -1.76
4  CC(=O)NC12CC3CC(C1)CC(C(=O)Nc1c(C)n(C)n(-c4ccccc4)c1=O)(C3)C2   inhibition    -13
5  COc1cc(NC(C)CCCN)c2ncccc2c1Oc1ccccc1 (centres undefined)   inhibition  -3.95
6          CCCC(=O)Nc1nc2ccc(C(=O)OCC)cc2s1   inhibition   -1.4
7           CN1C(=O)N(C)c2ccc(Br)c3cccc1c23   inhibition  -5.58

Please give inhibition, item by item, for the list that follows.
1. [O-][n+]1c2ccccc2c2n1CCN=C2c1ccc(Cl)cc1
2. Cc1cc(C)c(NC(=O)COC(=O)Cn2nc(-c3ccccc3)oc2=O)c(C)c1
3. CC1=NN(C(=O)c2ccc(Cl)cc2)C(O)(c2ccccc2)C1 (centres undefined)

OUTPUT:
1: 0.84; 2: 3.1; 3: 28

* * *

test: M. tuberculosis growth inhibition, HTS (AID 449762);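 note: bacterial growth assessed after seven days of incubation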; settings: M. tuberculosis H37Rv growth inhibition, 7H9 media; at 25 µM; stronger effect = higher value
Among all 330,000 compounds or so, about 1,900 (0.58%) were called active. About 4% were inconclusive and are not listed. These entries were drawn from the full list. Measured potencies and affinities stand elsewhere.
metric.name: inhibition (%)
Numbers only, in %.

In [3]: df
Out[3]:
                                   molecule  unit_tag    val
0      CC(=O)Nc1cccc(-c2nc3ccccc3c(=O)o2)c1         %    8.2
1  CC(C)Oc1cccc(C(=O)C2CCCN(Cc3cnc(N4CCOCC4)s3)C2)c1 (configuration not stated)         %   0.96
2        O=C(Cc1cn2ccsc2n1)Nc1nc2c(s1)CCCC2         %  -0.56
3  Cc1cc(=O)oc2cc(OC(C)C(=O)N3CCCc4ccccc43)ccc12 (configuration not stated)         %  -5.32
4   CCC(=O)Nc1ccc(C2=Nn3c(nnc3C(C)C)SC2)cc1         %   9.12

Please give inhibition, item by item, for the list that follows.
1. CN(C)c1c(N)c(=O)oc2ccccc12
2. O=C(CN1CCN(c2nc(-c3ccccc3)cs2)CC1)Nc1ccc2c(c1)OCO2
3. CCN(CCCNC(=O)CNC(=O)c1nn(-c2ccc(OC)cc2)c(=O)c2ccccc12)c1cccc(C)c1
4. CCCCCCCc1nc2nc(C)c(Br)c(=O)n2[nH]1
5. COc1ccc(NC(=O)C(C)N(C)Cc2ccc3ccccc3c2)cc1 (configuration not stated)

OUTPUT:
-9.33
-7.77
8.46
8.34
0.65

Please give inhibition, item by item, for the list that follows.
1. CC1(C)Cc2c(sc3c2C(=O)N(c2ccccc2)C2=NCCCN23)CO1
2. CN(CCOc1ccccc1)C(=O)C1CCC(=O)N(CCCN2CCOCC2)C1 (configuration not stated)
3. CCOC(=O)Cc1cn(C(=O)OC(C)(C)C)c2ccccc12
4. CC(OC(=O)c1cccnc1Cl)C(=O)Nc1ccc2c(c1)OCO2 (configuration not stated)

OUTPUT:
1. 1.18
2. 14.5
3. -4.41
4. 0.24
